Origin of values: patent US9371330B2

- Target entity: CBP (Homo sapiens)
- Sequence (Q92793 whole entry): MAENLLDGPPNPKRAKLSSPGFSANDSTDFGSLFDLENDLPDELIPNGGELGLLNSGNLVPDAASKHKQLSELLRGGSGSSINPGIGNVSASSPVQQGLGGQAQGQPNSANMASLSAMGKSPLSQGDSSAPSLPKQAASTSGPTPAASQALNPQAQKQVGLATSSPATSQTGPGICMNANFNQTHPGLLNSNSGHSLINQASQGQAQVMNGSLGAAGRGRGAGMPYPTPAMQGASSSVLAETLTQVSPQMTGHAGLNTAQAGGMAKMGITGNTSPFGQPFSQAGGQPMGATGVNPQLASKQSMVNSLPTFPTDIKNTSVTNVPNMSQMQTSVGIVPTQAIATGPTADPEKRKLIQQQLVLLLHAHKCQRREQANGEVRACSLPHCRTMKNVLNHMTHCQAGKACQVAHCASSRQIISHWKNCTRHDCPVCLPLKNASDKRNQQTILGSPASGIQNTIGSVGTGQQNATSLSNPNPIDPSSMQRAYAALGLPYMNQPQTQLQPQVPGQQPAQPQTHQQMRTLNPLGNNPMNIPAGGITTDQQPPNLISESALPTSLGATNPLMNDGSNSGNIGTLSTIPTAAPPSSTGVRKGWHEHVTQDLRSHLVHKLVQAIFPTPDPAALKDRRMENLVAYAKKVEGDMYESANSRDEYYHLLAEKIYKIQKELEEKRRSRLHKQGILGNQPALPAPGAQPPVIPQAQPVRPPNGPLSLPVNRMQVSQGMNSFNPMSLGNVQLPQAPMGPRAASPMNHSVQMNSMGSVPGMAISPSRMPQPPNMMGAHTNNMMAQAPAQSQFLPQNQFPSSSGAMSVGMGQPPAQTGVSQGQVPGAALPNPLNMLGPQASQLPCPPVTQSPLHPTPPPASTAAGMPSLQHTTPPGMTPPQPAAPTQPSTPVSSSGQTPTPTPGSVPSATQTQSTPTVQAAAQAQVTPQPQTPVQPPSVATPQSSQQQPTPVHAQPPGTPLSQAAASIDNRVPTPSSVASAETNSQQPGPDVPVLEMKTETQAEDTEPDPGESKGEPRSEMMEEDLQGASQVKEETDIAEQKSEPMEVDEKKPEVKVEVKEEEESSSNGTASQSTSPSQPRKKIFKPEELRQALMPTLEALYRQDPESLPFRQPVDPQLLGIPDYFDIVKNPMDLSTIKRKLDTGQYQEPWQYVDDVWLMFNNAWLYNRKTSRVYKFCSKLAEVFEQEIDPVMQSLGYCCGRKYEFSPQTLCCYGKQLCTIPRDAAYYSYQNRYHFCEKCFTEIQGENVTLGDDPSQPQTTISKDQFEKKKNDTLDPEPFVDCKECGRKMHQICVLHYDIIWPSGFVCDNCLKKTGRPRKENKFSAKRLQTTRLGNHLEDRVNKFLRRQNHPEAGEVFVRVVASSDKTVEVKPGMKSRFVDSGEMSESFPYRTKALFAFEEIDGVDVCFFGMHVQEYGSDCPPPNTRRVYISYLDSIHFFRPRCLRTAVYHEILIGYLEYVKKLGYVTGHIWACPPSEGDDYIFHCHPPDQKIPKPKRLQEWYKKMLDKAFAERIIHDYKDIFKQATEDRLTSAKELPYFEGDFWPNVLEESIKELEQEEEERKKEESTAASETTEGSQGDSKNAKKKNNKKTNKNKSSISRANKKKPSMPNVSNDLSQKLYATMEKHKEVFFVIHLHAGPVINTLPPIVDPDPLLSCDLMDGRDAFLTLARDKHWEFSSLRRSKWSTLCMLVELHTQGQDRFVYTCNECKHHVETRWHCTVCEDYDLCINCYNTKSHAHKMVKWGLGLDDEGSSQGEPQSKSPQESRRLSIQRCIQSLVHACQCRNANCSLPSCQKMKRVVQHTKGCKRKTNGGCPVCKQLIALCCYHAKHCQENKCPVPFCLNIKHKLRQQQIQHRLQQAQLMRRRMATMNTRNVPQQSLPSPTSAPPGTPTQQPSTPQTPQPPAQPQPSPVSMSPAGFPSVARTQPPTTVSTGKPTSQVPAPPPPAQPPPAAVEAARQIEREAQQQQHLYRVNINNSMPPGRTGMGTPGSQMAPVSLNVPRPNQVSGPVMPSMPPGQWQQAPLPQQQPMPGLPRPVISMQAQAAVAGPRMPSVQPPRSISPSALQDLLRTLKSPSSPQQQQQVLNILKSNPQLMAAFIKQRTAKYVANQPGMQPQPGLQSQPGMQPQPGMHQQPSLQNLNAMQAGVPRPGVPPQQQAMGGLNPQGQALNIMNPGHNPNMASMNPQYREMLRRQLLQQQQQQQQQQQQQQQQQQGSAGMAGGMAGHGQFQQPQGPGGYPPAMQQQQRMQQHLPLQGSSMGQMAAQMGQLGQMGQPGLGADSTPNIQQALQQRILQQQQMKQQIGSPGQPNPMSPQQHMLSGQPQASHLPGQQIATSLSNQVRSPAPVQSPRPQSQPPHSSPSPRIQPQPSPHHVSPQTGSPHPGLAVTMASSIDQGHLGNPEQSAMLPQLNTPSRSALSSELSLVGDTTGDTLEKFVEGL
- Assay text: binding to coactivator CBP (affinity chromatography; binding and isothermal calorimetry)
- Test context: affinity chromatography approach; read-out: binding affinity to the coactivator CBP
Experimental readout: Kd

Short answer on CBP (Homo sapiens) for O=C1[C@H](Cc2ccc(O)cc2)N2C(=O)CCN(C(=O)NCc3ccccc3)[C@H]2CN1Cc1cccc2ccccc12 , Kd: ~1 nM

----------
- System: Wnt/catenin transcription in SW480 colon carcinoma cells
- Assay text: TOPFLASH TCF/catenin luciferase reporter
- Format: cell-based
- Test context: Homo sapiens
Experimental readout: pIC50
Field pIC50 (float): negative decimal logarithm of the concentration in molar.

compound O=C1[C@H](Cc2ccc(O)cc2)N2C(=O)CCN(C(=O)NCc3ccccc3)[C@H]2CN1Cc1cccc2ccccc12 , pIC50 observed: 5.52
